Recorded Tmax for the following molecules
assay type: in vivo; conditions: human, plasma, po, 10 mg
Numbers only here, please. The scale is h.

Entry `CCOC(=O)[C@H](CCc1ccccc1)N[C@@H](C)C(=O)N1[C@H](C(=O)O)C[C@@H]2CCC[C@@H]21` has what Tmax?
0.5

Moving on to the next molecule.
Give the measured Tmax of CC(C)NCC(O)COc1ccc(COCCOC(C)C)cc1 (centres unmarked) .
2.33

====

type: in vivo; conditions: human, plasma, po, 10 mg
Parameter: Cmax. Scope: all listed entries.
Response body: numeric value in ng/mL, unit text excluded.

# lookup: Cmax of `CCOC(=O)[C@H](CCc1ccccc1)N[C@@H](C)C(=O)N1[C@H](C(=O)O)C[C@@H]2CCC[C@@H]21`
24.1

Continue with the next molecule.
Give the measured Cmax of CC(C)NCC(O)COc1ccc(COCCOC(C)C)cc1 (centres unmarked) .
42.6

====

This section presents molecules with their documented half-life values.
format: in vivo; conditions: human, plasma, po, 10 mg
Give the quantity in h, number only.

# input molecule: CCOC(=O)[C@H](CCc1ccccc1)N[C@@H](C)C(=O)N1[C@H](C(=O)O)C[C@@H]2CCC[C@@H]21 [RAMI, ramipril] ; wanted: its half-life
2.03

Now for the molecule whose half-life we want.
Endpoint output: half-life of CC(C)NCC(O)COc1ccc(COCCOC(C)C)cc1 (centres unmarked) [BISO, bisoprolol] . Value?
11.2

====

experiment: Bioequivalence studies 1 and 2: PK summary across both treatments and studies; type: in vivo, human; conditions: human, plasma, oral
measure_name: half-life

Requested read-out: half-life. Entry: CC(C)NCC(O)COc1ccc(COCCOC(C)C)cc1 (stereo not shown)
10.7 to 10.9 h

====

Readings of AUC(0-inf) for the listed compounds
assay type: in vivo; details: human, plasma, po, 10 mg
Answer in ng·h/mL, number only, no unit symbol.

Given the compound CC(C)NCC(O)COc1ccc(COCCOC(C)C)cc1 (centres unmarked) [BISO, bisoprolol] , what is its reported AUC(0-inf)?
777

Consider the additional compound presented here.
Look up AUC(0-inf): CCOC(=O)[C@H](CCc1ccccc1)N[C@@H](C)C(=O)N1[C@H](C(=O)O)C[C@@H]2CCC[C@@H]21 [RAMI, ramipril]
18.1
